The values you see were collected from ChEMBL document CHEMBL2331378.

Measured Ratio IC50 accompanies every entry in the list below.
# Protocol Text: Selectivity index, ratio of IC50 for equine serum BuChE to IC50 for AChE (unknown origin)
Property: Ratio IC50

C=CC(=O)N1C/C(=C\c2ccccc2OC)C(=O)/C(=C/c2ccccc2OC)C1; 3.32
C=CC(=O)N1C/C(=C\c2ccc(Cl)cc2Cl)C(=O)/C(=C/c2ccc(Cl)cc2Cl)C1; 1.86
O=C(C[C@H]1C[C@H]2CCCN2[C@]12C(=O)Nc1ccccc12)N1C/C(=C\c2ccccc2F)C(=O)[C@]2(C[C@H]3CCCN3[C@@]23C(=O)Nc2ccccc23)C1 (racemic); 0.37
O=C(C[C@H]1C[C@H]2CCCN2[C@]12C(=O)Nc1ccccc12)N1C/C(=C\c2cccc([N+](=O)[O-])c2)C(=O)[C@]2(C[C@H]3CCCN3[C@@]23C(=O)Nc2ccccc23)C1 (racemic); 0.91
O=C(C[C@H]1C[C@H]2CCCN2[C@]12C(=O)Nc1ccccc12)N1C/C(=C\c2cccc3ccccc23)C(=O)[C@]2(C[C@H]3CCCN3[C@@]23C(=O)Nc2ccccc23)C1 (racemic); 0.31
Cc1ccccc1/C=C1\CN(C(=O)C[C@H]2C[C@H]3CCCN3[C@]23C(=O)Nc2ccccc23)C/C(=C\c2ccccc2C)C1=O (racemic); 1.43
O=C1/C(=C/c2ccc(Cl)cc2Cl)CN(C(=O)C[C@H]2C[C@H]3CCCN3[C@]23C(=O)Nc2ccccc23)C/C1=C\c1ccc(Cl)cc1Cl (racemic); 5.15
O=C(C[C@H]1C[C@H]2CCCN2[C@]12C(=O)Nc1ccccc12)N1C/C(=C\c2ccc(F)cc2)C(=O)[C@]2(C[C@H]3CCCN3[C@@]23C(=O)Nc2ccccc23)C1 (racemic); 0.35
COc1ccccc1/C=C1\CN(C(=O)C[C@H]2C[C@H]3CCCN3[C@]23C(=O)Nc2ccccc23)C/C(=C\c2ccccc2OC)C1=O (racemic); 0.59
C=CC(=O)N1C/C(=C\c2cccc([N+](=O)[O-])c2)C(=O)/C(=C/c2cccc([N+](=O)[O-])c2)C1; 5.24
O=C1/C(=C/c2ccccc2F)CN(C(=O)C[C@H]2C[C@H]3CCCN3[C@]23C(=O)Nc2ccccc23)C/C1=C\c1ccccc1F (racemic); 0.1
C=CC(=O)N1C/C(=C\c2ccccc2)C(=O)/C(=C/c2ccccc2)C1; 1.25
C=CC(=O)N1C/C(=C\c2ccc(F)cc2)C(=O)/C(=C/c2ccc(F)cc2)C1; 2.02
